# System: SH-SY5Y
# Test Method Notes: Antiproliferative activity against human SH-SY5Y cells assessed as reduction in cell viability
# Format: functional, cell-based
pIC50: −log10 of the molar value.
Quantity Measured: pIC50

Chem Smiles | Value Measured
C[C@H](NC(=O)c1cccc2ccccc12)C(=O)Nc1ccccc1Oc1ccccc1 | 5.40

###

# Target Under Test: Proliferating cell nuclear antigen (Homo sapiens, UniProt P12004)
# Sequence (P12004 whole entry): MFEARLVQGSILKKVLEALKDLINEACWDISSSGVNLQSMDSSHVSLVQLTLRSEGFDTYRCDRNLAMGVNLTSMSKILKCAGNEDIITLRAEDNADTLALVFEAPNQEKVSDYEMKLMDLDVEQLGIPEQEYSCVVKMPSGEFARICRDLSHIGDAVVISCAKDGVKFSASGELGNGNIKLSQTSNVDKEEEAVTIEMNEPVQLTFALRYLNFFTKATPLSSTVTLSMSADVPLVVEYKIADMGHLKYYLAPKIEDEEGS
# Test Method Notes: Binding affinity to N-terminal recombinant 6His-tagged PCNA (unknown origin) extracted from Escherichia coli BL21 (DE3) by fluorescence polarization assay
pKi: −log10 of the molar value.
Use rule met when the recorded pKi is no lower than 7; use rule not met when it is lower.

Chem Smiles | Group
CS(=O)(=O)NC(=O)CCc1cc(I)c(Oc2ccc(O)cc2)c(I)c1 | rule not met
N[C@H](CNC(=O)NCc1ccccc1)Cc1cc(I)c(Oc2ccc(O)cc2)c(I)c1 | rule met
COc1ccc(Oc2c(I)cc(CCC(=O)N3CCCCC3)cc2I)cc1 | rule not met
O=C1CN(C(=O)Cc2cc(I)c(Oc3ccc(O)cc3)c(I)c2)CCN1 | rule not met

###

# Target Under Test: Proliferating cell nuclear antigen (Homo sapiens, UniProt P12004)
# Test Method Notes: Binding affinity to N-terminal recombinant 6His-tagged PCNA (unknown origin) extracted from Escherichia coli BL21 (DE3) by fluorescence polarization assay
Binary call on Ki with cut-off 700 nM: strictly below means YES, and equality or higher means NO.

Chem Smiles | Group
N[C@H](CNC(=O)CO)Cc1cc(I)c(Oc2ccc(O)cc2)c(I)c1 | YES
CS(=O)(=O)NC(=O)Cc1cc(I)c(Oc2ccc(O)cc2)c(I)c1 | NO
O=C(Cc1cc(I)c(Oc2ccc(O)cc2)c(I)c1)N1CCOCC1 | YES
O=C(CCc1cc(I)c(Oc2ccc(O)cc2)c(I)c1)N1CCCCC1 | YES
O=S(=O)(N[C@H](CO)Cc1cc(I)c(Oc2ccc(O)cc2)c(I)c1)c1ccc(O)cc1 | NO
O=C1CN(C(=O)CCc2cc(I)c(Oc3ccc(O)cc3)c(I)c2)CCN1 | NO
O=C1NC[C@H](Cc2cc(I)c(Oc3ccc(O)cc3)c(I)c2)N1 | YES

###

# Test system: SK-N-AS
# Test Method Notes: Antiproliferative activity against human SK-N-AS cells assessed as reduction in cell viability incubated for 72 hrs by cell-titer Glo assay
# Format: functional, cell-based
Quantity Measured: IC50 (nM)

Chem Smiles | Quantity Measured | U | Value Comparator | Value Measured
O=C(CNC(=O)c1cncc2ccccc12)Nc1ccc(Oc2ccncc2)cc1 | IC50 | nM | > | 30000
O=C(CNC(=O)c1cncc2ccccc12)Nc1cccc(Oc2ccncc2)c1 | IC50 | nM | > | 30000
O=C(CNC(=O)c1cccc2ccccc12)Nc1ccc(Oc2ccncc2)cc1 | IC50 | nM | = | 1100
O=C(CNC(=O)c1cncc2ccccc12)Nc1ccccc1Oc1ccncc1 | IC50 | nM | > | 30000
O=C(CNC(=O)c1cccc2ccccc12)Nc1ccccc1Cc1ccccc1 | IC50 | nM | = | 1100
O=C(CNC(=O)c1cccc2ccccc12)Nc1c(Cl)cccc1Oc1ccccc1 | IC50 | nM | > | 10000
O=C(CNC(=O)c1cncc2ccccc12)Nc1ccccc1Oc1ccccc1 | IC50 | nM | > | 30000
COc1cccc(Oc2ccccc2NC(=O)CNC(=O)c2ccc(-c3ccccc3)cc2)c1 | IC50 | nM | > | 10000
O=C(CNC(=O)c1cccc2ccccc12)Nc1ccccc1Oc1cccc(O)c1 | IC50 | nM | = | 192
O=C(CNC(=O)c1cccc2ccccc12)Nc1ccc(Cl)cc1Oc1ccccc1 | IC50 | nM | = | 185
O=C(CNC(=O)c1nccc2ccccc12)Nc1ccc(Oc2ccncc2)cc1 | IC50 | nM | > | 30000
COc1ccc(Oc2ccccc2NC(=O)CNC(=O)c2cccc3ccccc23)cc1 | IC50 | nM | = | 91
O=C(CNC(=O)c1cccc2ccccc12)Nc1ccccc1Oc1ccccc1 | IC50 | nM | = | 100
O=C(CNC(=O)c1nccc2ccccc12)Nc1ccccc1Oc1ccncc1 | IC50 | nM | = | 42000
COc1cccc(Oc2ccccc2NC(=O)CNC(=O)Cc2cccc3ccccc23)c1 | IC50 | nM | > | 10000
O=C(CNC(=O)c1cccc2ccccc12)Nc1ccccc1Oc1ccc(O)cc1 | IC50 | nM | = | 156
COc1cccc(Oc2ccccc2NC(=O)CNC(=O)CCc2cccc3ccccc23)c1 | IC50 | nM | > | 10000
